meta.source: ChEMBL document CHEMBL1201862

system: A498; assay: NCI tumour cell line growth inhibition, 48 h
Active and inactive are the calls of the source. Cut-off read from the data, not from the text of the source: active = GI50 up to about 1.1 µM and inactive = higher.
GI50 by entry:

compound: CN(C)CCCNC(=O)c1cccc2nc3ccccc3nc12
GI50: 16 µM (inactive)
//
compound: Cc1ccc(S(=O)(=O)c2c(O)c3ccccc3n(C)c2=O)cc1
GI50: > 100 µM (inactive)
//
compound: O=CNc1ccc2c(c1)C(=O)c1ccccc1-2
GI50: 90.2 µM (inactive)
//
compound: O=C1Nc2ccccc2/C1=N/NC(=O)C(O)(c1ccccc1)c1ccccc1
GI50: 18.3 µM (inactive)
//
compound: COc1ccc(O)cc1C(O)c1ccccc1 (stereo unspecified)
GI50: > 100 µM (inactive)
//
compound: Cn1cnc2nc(Cl)nc(NC(C)(C)C(C)(C)O)c21
GI50: > 100 µM (inactive)
//
compound: COC(=O)/C(=C\c1ccc(N(CCC#N)CCC#N)cc1)NC(=O)c1cc([N+](=O)[O-])ccc1Cl
GI50: > 100 µM (inactive)
//
compound: CC(=O)Nc1cccc(N2C(=O)/C(=C\c3cccc(Oc4ccccc4)c3)S(=O)(=O)C2c2ccccc2)c1 (stereo unspecified)
GI50: > 100 µM (inactive)
//
compound: Brc1cccc(/C=N/C23CC4CC(CC(C4)C2)C3)c1
GI50: > 100 µM (inactive)
//
compound: CN(C)CCCSc1c2ccccc2nc2cc(NCC(=O)Nc3ccccc3-c3ccccc3NC(=O)CNc3ccc4c(SCCCN(C)C)c5ccccc5nc4c3)ccc12
GI50: > 100 µM (inactive)
//
compound: CCCNC1=Nc2ccccc2N(Cc2ccccc2)CC1
GI50: 11.4 µM (inactive)
//
compound: O=C1NC2(CCCCCC2)C2CCCCCCC12O (stereo unspecified)
GI50: > 100 µM (inactive)
//
compound: COCOCCC#CCO
GI50: > 100 µM (inactive)
//
compound: CCN(CC)CCN1CCc2c([nH]c3ccccc23)C1c1cccnc1 (stereo unspecified)
GI50: > 100 µM (inactive)
//
compound: CC(C)C(OC(=O)c1cc(NC(=S)c2ccccc2)ccc1Cl)C(C)C
GI50: 21.1 µM (inactive)
//
compound: Cc1nc2cc([N+](=O)[O-])ccc2c(NCCCN(C)C)c1C
GI50: 14.9 µM (inactive)
//
compound: COP(C)(=O)C(Cc1c[nH]c2ccccc12)NC(=O)OCc1ccccc1 (stereo unspecified)
GI50: > 100 µM (inactive)
//
compound: C[C@]12CCC(=O)C(O)=C1CC[C@@H]1C2CC[C@]2(C)Nc3c(cnn3-c3ccccc3)CC12 (stereo partly specified)
GI50: > 100 µM (inactive)
//
compound: [N-]=[N+]=CC(=O)OC(CCl)CCl
GI50: > 100 µM (inactive)
//
compound: CNC(C#N)c1ccc(OC)cc1 (stereo unspecified)
GI50: > 100 µM (inactive)
//
compound: CNC(C)C(O)c1ccc2oc3cc(=O)c4ccccc4c-3nc2c1 (stereo unspecified)
GI50: 24 µM (inactive)
//
compound: O=C(C(=O)c1cc2ccccc2[nH]1)c1cc2ccccc2[nH]1
GI50: > 347 µM (inactive)
//
compound: C=C(CO)CC(/C=C(\C)CC/C=C(\C)CCl)OC(C)=O (stereo unspecified)
GI50: > 100 µM (inactive)
//
compound: Nc1c(C(=O)Nc2ccccc2)[n+]([O-])c2ccccc2[n+]1[O-]
GI50: 16.9 µM (inactive)
//
compound: CS(=O)(=O)Nc1ccc(Nc2ccnc3ccc4[nH]ccc4c23)cc1
GI50: 18.5 µM (inactive)
//
compound: CCN(CC)C1CCC(C2c3cc4c(cc3OC(N3CCOCC3)C2C)OCO4)CC1 (stereo unspecified)
GI50: 21 µM (inactive)
